Field: MIC against P. vulgaris. Provide a value for each of the substances that follow.
# Tested on: Proteus vulgaris
# Protocol Description: MIC against Gram-negative bacteria: Proteus vulgaris
# Assay type: cell-based
# Test Conditions: Proteus vulgaris; 96-well plate, 5×10^5 CFU/mL, 37° C., 10 h
Reply with the number, then its unit.

PRT1263 (DVDECAQGLDDCHADALCQNTPTSYKCSCKPGYQGEGRQCE; listed as Homo sapiens) :: 12.5 µg/mL

Provide reported MIC against P. vulgaris for each item, in the same order as listed.
1. PRT1338 (EMDPCTGLTPGGCSRNAECIKTGTGTHTCVCQQGWTGNGRDCS; listed as Homo sapiens)
2. PRT1275 (EGMNCMNKNHGCAHICRETPKGGIACECRPGFELTKNQRDCK; listed as Homo sapiens)
3. PRT1314 (ARNPCTDGHRGGCSEHANCLSTGLNTRRCECHAGYVGDGLQCL; listed as Homo sapiens)
4. PRT1222 (SVNYCECNPCFNGGSCQSGVDSYYCHCPFGVFGKHCE; listed as Homo sapiens)
5. PRT1209 (ATEDCASNPCQNGGVCNPSPAGGYYCKCSALYIGTHCE; listed as Homo sapiens)

["12.5 µg/mL", "25 µg/mL", "12.5 µg/mL", "25 µg/mL", "25 µg/mL"]

Provide reported MIC against P. vulgaris for each item, in the same order as listed.
1. PRT1329 (LPAVCTPPCSAHATCKENNTCECNLDYEGDGITCT; listed as Homo sapiens)
2. PRT1270 (DVDECSLDRTCDHSCINHPGTFACACNRGYTLYGFTHCG; listed as Homo sapiens)
3. PRT1318 (DCTQCPGGFSNPCYGKGNCSDGIQGNGACLCFPDYKGIACH; listed as Homo sapiens)
4. PRT1215 (SNDPCVEKPCPGDMQCVSYEASRRPFLCQCPPGKLGECS; listed as Homo sapiens)
5. PRT1223 (LEGACTRSPCQHGGTCMDYWSWQQCHCKEGLTGKYCE; listed as Homo sapiens)

1: 25 µg/mL; 2: 25 µg/mL; 3: 50 µg/mL; 4: 12.5 µg/mL; 5: 50 µg/mL

Provide reported MIC against P. vulgaris for each item, in the same order as listed.
1. PRT1244 (CGSTCPTCVQGSCDTVTGDCVCSAGYWGPSCN; listed as Homo sapiens)
2. PRT1282 (SLDSCSSGPCENGGTCHAQEGEDAPFTCSCPTGFEGPTCG; listed as Homo sapiens)

1. 50 µg/mL
2. 25 µg/mL

Provide reported MIC against P. vulgaris for each item, in the same order as listed.
1. PRT1302 (QTSPCDQYECQNGAQCIVVQQEPTCRCPPGFAGPRCE; listed as Homo sapiens)
2. PRT1309 (EVDPCAHGHGGCSPHANCTKVAPGQRTCTCQDGYMGDGELCQ; listed as Homo sapiens)
3. PRT1257 (CMNKDHGCAHICRETPKGGVACDCRPGFDLAQNQKDC; listed as Homo sapiens)

["50 µg/mL", "50 µg/mL", "12.5 µg/mL"]

* * *

# Tested on: E. coli DH5α
# Protocol Description: Antibacterial activity: MIC and growth curve against E. coli DH5α in 96-well plate
# Type: cell-based
# Test Conditions: minimal inhibitory concentration against E. coli DH5α; 96-well plate, 5×10^5 CFU/mL, 37° C., judged after 8 h
Field: MIC. Provide a value for each of the substances that follow.

As a guide, the following entries are already answered.
PRT1394 (VRDGCPGLCFGNGRCTLDQNGWHCVCQVGWSGTGCN; listed as Homo sapiens) :: 50 mg/L
PRT424 (DINECVTDLHTCSRGEHCVNTLGSFHCYKALTCEPGYALKDGECE; listed as Homo sapiens) :: 25 mg/L
PRT180 (DLDDCAGRACANGGTCVEGGGAHRCSCALGFGGRDCR; listed as Homo sapiens) :: 12.5 mg/L
PRT1100 (DIDECASDPCVNGGLCQDLLNKFQCLCDVAFAGERCE; listed as Homo sapiens) :: 12.5 mg/L
PRT662 (RIYFCQIPCLNGGRCIGRDECWCPANSTGKFCH; listed as Homo sapiens) :: 25 mg/L

Provide reported MIC for each item, in the same order as listed.
1. PRT879 (TLKQCASAPCRNGGVCREGWNRFICDCIGTGFLGRVCE; listed as Homo sapiens)
2. PRT1232 (IGQQCPNMCSGHGSCDHGICRCDQGYQGTECH; listed as Homo sapiens)
3. PRT250 (DVDECRTSITLCSHHCFNTAGSFTCGCPHDLVLGVDGRTCM; listed as Homo sapiens)

25 mg/L
50 mg/L
12.5 mg/L

* * *

Field: MIC against E. cloacae. Provide a value for each of the substances that follow.
# Test system: Enterobacter cloacae
# Protocol Description: MIC against Gram-negative bacteria: Enterobacter cloacae
# Type: cell-based
# Test Conditions: Enterobacter cloacae; 5×10^5 CFU/mL; 10 h cultivation at 37° C.
Give bare numbers, in µg/mL.

As a guide, the following entries are already answered.
PRT1399 (ARVQCPDQCSGHGTYLPDTGLCSCDPNWMGPDCS; listed as Homo sapiens) :: 25
PRT1344 (DIDECSPLPCLNNGVCKDLVGEFICECPSGYTGQRCE; listed as Homo sapiens) :: 25
PRT1363 (SEKRCPADCHNRGRCVDGRCECDDGFTGADCG; listed as Homo sapiens) :: 50
PRT1377 (PASACPGGCGPRELCRAGQCVCVEGFRGPDC; listed as Homo sapiens) :: 12.5
PRT1447 (GCGAGRWGPGCTKECPGCLHGGVCHDHDGECVCPPGFTGTRCE; listed as Homo sapiens) :: 12.5
PRT1443 (NHMPCPENLNGYCIHGKCEFIYSTQKASCRCESGYTGQHCE; listed as Homo sapiens) :: 25

Provide reported MIC against E. cloacae for each item, in the same order as listed.
1. PRT1476 (DVDECSLKPSICGTAVCKNIPGDFECECPEGYRYNLKSKSCE; listed as Homo sapiens)
2. PRT1389 (PEEQCIDPTCFGHGTCIMGVCICVPGYKGEICE; listed as Homo sapiens)
3. PRT1361 (SELICPNDCFDRGRCINGTCYCEEGFTGEDCG; listed as Homo sapiens)
4. PRT1462 (CQCNLHGSVNKFCNPHSGQCECKKEAKGLQCDTCRENFYGLDVTNCKA; listed as Homo sapiens)
5. PRT1485 (DVNECRRPLERRVCHHSCHNTVGSFLCTCRPGFRLRADRVSCE; listed as Homo sapiens)

1: 12.5; 2: 25; 3: 12.5; 4: 12.5; 5: 12.5

* * *

# Test system: Serratia marcescens
# Protocol Description: MIC against Gram-negative bacteria: Serratia marcescens
# Format: cell-based
# Test Conditions: Serratia marcescens; 96-well plate, 5×10^5 CFU/mL, 37° C., 10 h
Readout: MIC against S. marcescens (mg/L)
Give bare numbers, in mg/L.

PRT1318 (DCTQCPGGFSNPCYGKGNCSDGIQGNGACLCFPDYKGIACH; listed as Homo sapiens) :: 25
PRT1278 (DIDECRLNNGGCDHICRNTVGSFECSCKKGYKLLINERNCQ; listed as Homo sapiens) :: 12.5
PRT1215 (SNDPCVEKPCPGDMQCVSYEASRRPFLCQCPPGKLGECS; listed as Homo sapiens) :: 25
PRT1221 (DINECLQSPCKNGAICQNFPGSFNCVCKTGYTGKMCE; listed as Homo sapiens) :: 50
PRT1254 (DVDECSEGTDDCHIDAICQNTPKSYKCLCKPGYKGEGKQCE; listed as Homo sapiens) :: 50

Provide reported MIC against S. marcescens for each item, in the same order as listed.
1. PRT1288 (ADGPCHGHKCVHGQCVPLDALSYSCQCQDGYSGALCN; listed as Homo sapiens)
2. PRT1343 (VFHECFFNPCHNSGTCQQLGRGYVCLCPLGYTGLKCE; listed as Homo sapiens)
3. PRT1297 (NACLSSPCKNNGTCTQDPVELYRCACPYSYKGKDCT; listed as Homo sapiens)
4. PRT1208 (VHHGCEDDPCPEGSECVSDPWEEKHTCVCPSGRFGQCP; listed as Homo sapiens)
5. PRT1240 (WGPDCRESCPCHPHGQCEPATGACQCQADRWGARCE; listed as Homo sapiens)
6. PRT1339 (EINNCLLPSAGGCHDNASCLYVGPGQNECECKKGFRGNGIDCE; listed as Homo sapiens)
7. PRT1267 (CNHGNGGCQHSCDDTADGPECSCHPQYKMHTDGRSC; listed as Homo sapiens)
8. PRT1249 (NQCACNSSPCEQQSGRCQCRERTFGARCD; listed as Homo sapiens)

[12.5, 50, 50, 12.5, 25, 25, 12.5, 25]
